Assayed System: HLA-A*26:02
Test Method Notes: IEDB peptide-MHC binding, purified MHC/competitive/fluorescence; filed as Kd, often an IC50 or EC50 that approximates it; bounds were set here for any values at or beyond the usual limits of such assays
Condition: source organism: Homo sapiens
pKd: −log10 of the molar value.
Readout Name: pKd

Answer with the recorded pKd for the sequence listed here: `VRVCACPGR`
≤ 4.70

----------
Assayed System: HLA-B*57:01
Test Method Notes: IEDB peptide-MHC binding, purified MHC/competitive/fluorescence; filed as Kd, often an IC50 or EC50 that approximates it; bounds were set here for any values at or beyond the usual limits of such assays
Condition: source organism: Entamoeba dispar SAW760
Readout Name: Kd

Give Kd for this entry on HLA-B*57:01: `KGFFRVFKK`
≥ 20 µM

Origin of the recorded values: the Immune Epitope Database (IEDB)
